# target desc: Bcl-2 protein (Recombinant Human Bcl-2 Protein) (Homo sapiens)
# Construct: purchased Novus NBP2-34889
# Sequence (P10415 whole entry): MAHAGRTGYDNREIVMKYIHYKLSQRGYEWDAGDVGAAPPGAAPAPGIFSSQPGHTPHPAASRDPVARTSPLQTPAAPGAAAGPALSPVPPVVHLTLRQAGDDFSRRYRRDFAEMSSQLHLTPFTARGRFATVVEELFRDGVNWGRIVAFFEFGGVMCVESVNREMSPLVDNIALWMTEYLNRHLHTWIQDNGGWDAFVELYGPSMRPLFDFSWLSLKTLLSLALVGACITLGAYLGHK
# test name: Binding evaluation of mixture library compounds to Bcl-2 using AS-MS (affinity selection mass spectrometry)
# condition notes: AS-MS on the mixture of 1200 library compounds; ASMS Ratio(%)=(A−C)/B×100; replicate n = 2
# Method: […] Then, analysis of the 1200 compounds was carried out for samples A, B, and C with TraceFinder 5.1 (Thermo Fisher Scientific) and CHANCE Software (in-house), and the ASMS Ratio (%) was calculated according to the following calculation formula. […]
experimental endpoint: ASMS ratio (%) n = 2

INSERT INTO results (compound_structure_string, unit_text, value_measured) VALUES
  ('CCOc1cccc(-c2csc(CN3CCN(c4ccc(C(=O)Nc5ccc(OC)cc5)nn4)CC3)c2)c1', '%', 0.6),
  ('CCOc1cncc(-c2ccc(C(=O)N3CCN(c4ccc(C(=O)Nc5ccc(OC)cc5)nn4)CC3)cc2C)c1', '%', 0.4),
  ('CCOc1cncc(-c2ccccc2CN2CCN(c3ccc(C(=O)Nc4ccc(OC)cc4)nn3)CC2)c1', '%', 0.4),
  ('CCOc1cccc(-c2ccc(CN3CCN(c4ccc(C(=O)Nc5ccc(OC)cc5)cc4)CC3)c(OC)c2)c1', '%', '−1.0'),
  ('CCOc1cccc(-c2ccc(C(=O)N3CCN(c4ccc(C(=O)N(CC)CC)nn4)CC3)cc2C)c1', '%', 0.0);

1. CCOc1cncc(-c2cc(CN3CCN(c4ccc(C(=O)Nc5ccc(OC)cc5)nn4)CC3)cc(OCC)c2)c1
2. CCOc1cncc(-c2csc(CN3CCN(c4ccc(C(=O)N(C)CC56CC7CC(CC(C7)C5)C6)cc4)CC3)c2)c1
# query: argmin of ASMS ratio (%) n = 2 over 1 and 2 // output: label of the selected item
2
(2: −3.6%, 1: 2.6%)

Reference source for all entries: patent US20240132431A1
